Test system: NCI-H322M lung
Test: NCI-60 one-dose screen, 48 h (100 = growth as untreated, 0 = no growth, -100 = all killed)
Settings: 10 µM unless noted
The panel holds about 83,000 compounds, 20% with a hit somewhere; the sample as a whole holds those more often.
# growth listing for each entry below
Write down the numeric answer in % and omit the unit.

Q: Tell me the measured growth of C=CC(=O)N1CCC(Oc2cc3c(Nc4ccc(Cl)c(Cl)c4F)ncnc3cc2OC)CC1 , please.
Result: 12.2

New cases:
Q: Query (molecule): CC(C)[C@@H](C)/C=C/[C@@H](C)[C@H]1CCC2=C3C=CC4=CC(=O)CC[C@]4(C)[C@H]3CC[C@@]21C ; field requested: growth
Result: 93.9

Q: Suppose we examine the molecule Clc1ccc(Nc2nccc(Nc3ccc4[nH]ncc4c3)n2)cc1 ; what growth value has been reported?
Result: 74.8

Q: Requested field: growth. Item: CNC(=O)c1cc(COc2nnc(Nc3ccc(Cl)cc3)c3ccoc23)ccn1
Result: 45.4

Q: // returns reported growth for input O=C(Cn1ccnc1)Nc1ccc(-c2nc3ccccc3s2)cc1
Result: 98.3

###

Test system: K-562 leukemia
Test: NCI-60 one-dose screen, 48 h (100 = growth as untreated, 0 = no growth, -100 = all killed)
Conditions: 10 µM unless noted
The panel holds about 83,000 compounds, 20% with a hit somewhere; the sample as a whole holds those more often.
Property Name: growth (%)
Give a bare numeral; the unit % is implied.

Example results:
Q: Need growth, item C[C@H]1Oc2cc(cnc2N)-c2c(nn(C)c2C#N)CN(C)C(=O)c2ccc(F)cc21
Result: 79.4

Q: Could you share which growth value was measured for O=C(Nc1cn[nH]c1-c1nc2ccc(CN3CCOCC3)cc2[nH]1)NC1CC1 ?
Result: 12.7

Continuing:
Q: Given NS(=O)(=O)c1ccc(CCN2C(=O)/C(=C\c3ccc(Cl)cc3)C=C2c2ccc3ccccc3c2)cc1 , state its recorded growth.
Result: 96.4

Q: Give the measured growth of CCC1(/C=N/NC(N)=S)NC(=O)NC1=O (centres undefined) .
Result: 109

Q: Suppose we examine the compound CCCCCCCCCCCC[n+]1ccccc1 ; what growth value has been reported?
Result: 6.1

###

Tested on: TK-10 renal
Assay: NCI-60 one-dose screen, 48 h
Details: 10 µM unless noted
Compounds without any hit were thinned out: in the full panel of roughly 83,000, 20% have a hit. Activity calls are given as the source filed them. How the source made its calls: active means growth percent below 10; inactive means the rest.
Output constraint: value belongs to True (active), False (inactive)

Completed entries (count: 2):
Q: Hello, I am checking results. What call was entered for C[C@]12O[C@H](C[C@]1(O)CO)n1c3ccccc3c3c4c(c5c6ccccc6n2c5c31)CNC4=O ?
Result: True

Q: Outcome? C=CC(=O)Nc1cccc(Nc2nc(Nc3ccc(N4CCN(C(C)=O)CC4)cc3OC)ncc2C(F)(F)F)c1
Result: True

Continuing:
Q: Kindly provide the recorded test outcome for the following compound: O=c1[nH]c(N2CCOCC2)nc2scc(-c3ccccc3)c12
Result: False

Q: # fetch the recorded call for CCc1cc2c(cc1N1CCC(N3CCOCC3)CC1)C(C)(C)c1[nH]c3cc(C#N)ccc3c1C2=O here
Result: True

Q: What did this assay record as the result for Brc1ccc([I+]c2ccc(Br)cc2)cc1 ?
Result: True

Q: Could you please tell me the result logged for CCCCn1c(C)nc2cc(Nc3nc(N4CCCCC4)nc4nc[nH]c34)ccc21 in this assay?
Result: False

Q: Which result was noted for this compound in the test: CC(C)=CCc1cc2c(cc1O)C1=C(C(=O)C3=C(NCCS3(=O)=O)C1=O)C(C=C(C)C)O2 (centres undefined)
Result: False

Q: Please state the recorded outcome for this compound: O=C1CC(c2ccc(Cl)cc2)c2ncn(-c3cccc(Cl)c3)c2N1 (centres undefined)
Result: False

Q: Record lookup: outcome of this test for Cc1cc2c(F)c(Oc3ncnn4cc(OC[C@@H](C)OC(=O)[C@H](C)N)c(C)c34)ccc2[nH]1 ?
Result: False

Numbers sourced from PubChem BioAssay (NCI).
